- measured-on: Kv7.1 (Homo sapiens)
- Sequence (P51787 whole entry): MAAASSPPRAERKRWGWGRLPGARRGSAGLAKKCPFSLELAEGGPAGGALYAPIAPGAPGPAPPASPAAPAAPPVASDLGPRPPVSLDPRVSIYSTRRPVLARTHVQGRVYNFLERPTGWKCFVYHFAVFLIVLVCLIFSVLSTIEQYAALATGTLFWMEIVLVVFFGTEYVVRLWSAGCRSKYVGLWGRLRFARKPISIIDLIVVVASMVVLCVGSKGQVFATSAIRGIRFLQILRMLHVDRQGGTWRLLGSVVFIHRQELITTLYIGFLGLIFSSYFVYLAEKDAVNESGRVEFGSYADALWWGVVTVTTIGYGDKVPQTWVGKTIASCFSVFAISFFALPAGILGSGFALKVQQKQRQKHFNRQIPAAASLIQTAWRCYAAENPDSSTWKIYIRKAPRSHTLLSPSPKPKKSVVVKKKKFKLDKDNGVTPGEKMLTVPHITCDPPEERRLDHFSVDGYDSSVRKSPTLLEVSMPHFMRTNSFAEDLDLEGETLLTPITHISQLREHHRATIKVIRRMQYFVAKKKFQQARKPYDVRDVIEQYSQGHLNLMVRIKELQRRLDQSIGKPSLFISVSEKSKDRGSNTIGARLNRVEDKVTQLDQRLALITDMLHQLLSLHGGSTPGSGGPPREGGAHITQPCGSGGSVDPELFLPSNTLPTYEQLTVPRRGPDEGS
- assay-notes: Perforated whole-cell patch-clamp of Kv7.1 current in transfected HEK293T cells
pIC50: −log10 of the molar value. Structures can show the parent of a compound that is named as a salt.
quantity: pIC50

>  <compound>
Fc1ccc([C@@H]2CCNC[C@H]2COc2ccc3c(c2)OCO3)cc1 [paroxetine, paroxetine hydrochloride]

>  <recorded-value>
4.14

$$$$

====

- measured-on: Kv7.5 (Homo sapiens)
- Sequence (Q9NR82 whole entry): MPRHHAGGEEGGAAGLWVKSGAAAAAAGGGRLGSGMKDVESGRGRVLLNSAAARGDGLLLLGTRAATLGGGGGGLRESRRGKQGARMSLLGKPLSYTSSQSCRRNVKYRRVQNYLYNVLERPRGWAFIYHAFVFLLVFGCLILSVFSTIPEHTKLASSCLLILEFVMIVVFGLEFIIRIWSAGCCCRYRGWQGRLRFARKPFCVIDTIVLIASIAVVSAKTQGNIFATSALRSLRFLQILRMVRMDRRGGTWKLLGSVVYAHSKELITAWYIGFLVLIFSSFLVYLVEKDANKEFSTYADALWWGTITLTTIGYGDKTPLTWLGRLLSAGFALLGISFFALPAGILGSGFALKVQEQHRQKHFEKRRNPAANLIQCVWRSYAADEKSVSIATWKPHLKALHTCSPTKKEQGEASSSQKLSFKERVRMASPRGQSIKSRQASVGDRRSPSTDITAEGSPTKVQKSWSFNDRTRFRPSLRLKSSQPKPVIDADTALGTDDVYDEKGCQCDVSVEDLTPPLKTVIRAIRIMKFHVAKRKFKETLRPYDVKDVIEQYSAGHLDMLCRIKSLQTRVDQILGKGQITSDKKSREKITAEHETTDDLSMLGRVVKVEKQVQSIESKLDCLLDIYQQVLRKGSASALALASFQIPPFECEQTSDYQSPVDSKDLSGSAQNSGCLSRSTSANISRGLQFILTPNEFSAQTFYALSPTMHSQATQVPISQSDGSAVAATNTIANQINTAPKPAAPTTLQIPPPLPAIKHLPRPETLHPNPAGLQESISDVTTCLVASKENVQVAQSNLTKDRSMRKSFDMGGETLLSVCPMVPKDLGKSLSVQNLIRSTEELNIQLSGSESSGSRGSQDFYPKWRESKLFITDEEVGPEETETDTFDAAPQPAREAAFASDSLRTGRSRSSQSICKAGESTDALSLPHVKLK
- assay-notes: Perforated whole-cell patch-clamp of Kv7.5 current in transfected HEK293T cells
Structures can show the parent of a compound that is named as a salt.
quantity: IC50

>  <compound>
Fc1ccc([C@@H]2CCNC[C@H]2COc2ccc3c(c2)OCO3)cc1 [paroxetine, paroxetine hydrochloride]

>  <quantity>
IC50

>  <recorded-value>
37.2 µM

$$$$
